target: Cannabinoid receptor 1 (Homo sapiens)
Sequence (P21554 whole entry): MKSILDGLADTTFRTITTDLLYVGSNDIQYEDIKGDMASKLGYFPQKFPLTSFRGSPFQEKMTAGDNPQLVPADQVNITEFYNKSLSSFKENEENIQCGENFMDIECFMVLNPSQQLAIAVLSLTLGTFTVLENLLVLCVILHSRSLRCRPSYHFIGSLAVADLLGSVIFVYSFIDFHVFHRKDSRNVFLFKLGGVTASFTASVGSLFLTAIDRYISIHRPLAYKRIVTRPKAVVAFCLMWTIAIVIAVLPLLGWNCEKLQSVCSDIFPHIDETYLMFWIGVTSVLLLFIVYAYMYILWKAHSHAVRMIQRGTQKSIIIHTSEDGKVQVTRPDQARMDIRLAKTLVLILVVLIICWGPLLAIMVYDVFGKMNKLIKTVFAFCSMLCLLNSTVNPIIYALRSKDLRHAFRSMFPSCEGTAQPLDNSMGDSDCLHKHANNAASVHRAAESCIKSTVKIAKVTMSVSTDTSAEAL
The reader will find reported Ki values listed item by item below.

- molecule_smiles: "CCCCCn1cc(C(=O)NC23CC4CC(CC(C4)C2)C3)c(=O)c2cc(C3=CCCCC3)ccc21"
  Ki: "> 10 µM"
- molecule_smiles: "CCCCCn1cc(C(=O)NC23CC4CC(CC(C4)C2)C3)c(=O)c2cc(-n3cccc3)ccc21"
  Ki: "0.0297 µM"
- molecule_smiles: "CCCCCn1cc(C(=O)N[C@H]2C(C)(C)[C@H]3CC[C@]2(C)C3)c(=O)c2cc(Br)ccc21"
  Ki: "0.0028 µM"
- molecule_smiles: "CCCCCn1cc(C(=O)NC23CC4CC(CC(C4)C2)C3)c(=O)c2cc(/C=C/c3ccccc3)ccc21"
  Ki: "> 10 µM"
- molecule_smiles: "CCCCCn1cc(C(=O)NC23CC4CC(CC(C4)C2)C3)c(=O)c2cc(-c3ccc(C#N)cc3)ccc21"
  Ki: "> 10 µM"
- molecule_smiles: "CCCCCn1cc(C(=O)NC23CC4CC(CC(C4)C2)C3)c(=O)c2cc(CC)ccc21"
  Ki: "0.9 µM"
- molecule_smiles: "CCCCCn1cc(C(=O)NC23CC4CC(CC(C4)C2)C3)c(=O)c2cc(-c3ccc(F)cc3F)ccc21"
  Ki: "> 10 µM"
- molecule_smiles: "CCCCCn1cc(C(=O)NC23CC4CC(CC(C4)C2)C3)c(=O)c2cc(-c3ccco3)ccc21"
  Ki: "> 10 µM"

* * *

The reader will find reported pKi values listed item by item below.
target: UniProt P21554
pKi: −log10 of the molar value.
reported_property: pKi

- molecule_smiles: "CCCCCn1cc(C(=O)NC23CC4CC(CC(C4)C2)C3)c(=O)c2cc(Cc3ccc(Cl)cc3Cl)ccc21"
  reported_property: "pKi"
  relation_symbol: "<"
  numeric_readout: 5.00
- molecule_smiles: "CCCCCn1cc(C(=O)NC23CC4CC(CC(C4)C2)C3)c(=O)c2cc(-c3cnn(CC(C)C)c3)ccc21"
  reported_property: "pKi"
  relation_symbol: "="
  numeric_readout: 6.61
- molecule_smiles: "CCCCCn1cc(C(=O)NN2CCCCC2)c(=O)c2cc(Br)ccc21"
  reported_property: "pKi"
  relation_symbol: "="
  numeric_readout: 5.72
- molecule_smiles: "CCCCCn1cc(C(=O)NC23CC4CC(CC(C4)C2)C3)c(=O)c2cc(CCc3ccccc3)ccc21"
  reported_property: "pKi"
  relation_symbol: "<"
  numeric_readout: 5.00
- molecule_smiles: "CCCCCn1cc(C(=O)NC23CC4CC(CC(C4)C2)C3)c(=O)c2cc(/C=C/C(C)(C)C)ccc21"
  reported_property: "pKi"
  relation_symbol: "<"
  numeric_readout: 5.00
- molecule_smiles: "CCCCCn1cc(C(=O)NC23CC4CC(CC(C4)C2)C3)c(=O)c2cc(-c3ccc(O)cc3)ccc21"
  reported_property: "pKi"
  relation_symbol: "<"
  numeric_readout: 5.00
- molecule_smiles: "CCCCCn1cc(C(=O)NC23CC4CC(CC(C4)C2)C3)c(=O)c2cc(-c3ccc4cc(OC)ccc4c3)ccc21"
  reported_property: "pKi"
  relation_symbol: "="
  numeric_readout: 6.44
- molecule_smiles: "CCCCCn1cc(C(=O)NC2CCCCC2)c(=O)c2cc(Br)ccc21"
  reported_property: "pKi"
  relation_symbol: "="
  numeric_readout: 5.77
- molecule_smiles: "CCCCCn1cc(C(=O)NC23CC4CC(CC(C4)C2)C3)c(=O)c2cc(-c3ccc(Cl)cc3)ccc21"
  reported_property: "pKi"
  relation_symbol: "<"
  numeric_readout: 5.00

* * *

Please consider the recorded pKi for Cannabinoid receptor 2 (Homo sapiens) in what follows.
pKi: −log10 of the molar value.

- molecule: "C=CCCn1cc(C(=O)NC23CC4CC(CC(C4)C2)C3)c(=O)c2cc(-c3ccco3)ccc21"
  pKi: 8.36
- molecule: "C#Cc1ccc2c(c1)c(=O)c(C(=O)NC13CC4CC(CC(C4)C1)C3)cn2CCCCC"
  pKi: 8.06
- molecule: "CCCCCn1cc(C(=O)NC23CC4CC(CC(C4)C2)C3)c(=O)c2cc(Cc3ccc(Cl)cc3Cl)ccc21"
  pKi: 5.41
- molecule: "CCCCCn1cc(C(=O)NC23CC4CC(CC(C4)C2)C3)c(=O)c2cc(-c3ccco3)ccc21"
  pKi: 9.15
- molecule: "CCCCCn1cc(C(=O)N[C@H]2C(C)(C)[C@H]3CC[C@]2(C)C3)c(=O)c2cc(-c3ccco3)ccc21"
  pKi: 8.62
- molecule: "CCCCCn1cc(C(=O)NN2CCCCC2)c(=O)c2cc(Br)ccc21"
  pKi: 6.40
- molecule: "CCCCCn1cc(C(=O)NC23CC4CC(CC(C4)C2)C3)c(=O)c2cc(-n3cccc3)ccc21"
  pKi: 9.15
- molecule: "CCCCCn1cc(C(=O)NC23CC4CC(CC(C4)C2)C3)c(=O)c2cc(C#Cc3ccccc3)ccc21"
  pKi: 6.46
- molecule: "CCCCCn1cc(C(=O)NC23CC4CC(CC(C4)C2)C3)c(=O)c2cc(-c3ccc(O)cc3)ccc21"
  pKi: 8.38
- molecule: "CCCCCn1cc(C(=O)NC23CC4CC(CC(C4)C2)C3)c(=O)c2cc(/C=C/c3ccccc3)ccc21"
  pKi: 7.18
- molecule: "CCCCCn1cc(C(=O)NC2CCCCC2)c(=O)c2cc(Br)ccc21"
  pKi: 6.05
- molecule: "CCCCCn1cc(C(=O)NC23CC4CC(CC(C4)C2)C3)c(=O)c2cc(-c3cc(C)c(OC)c(C)c3)ccc21"
  pKi: 7.67
- molecule: "CCCCCn1cc(C(=O)NC23CC4CC(CC(C4)C2)C3)c(=O)c2cc(-n3ccnc3)ccc21"
  pKi: 8.10
- molecule: "CCCCCn1cc(C(=O)N[C@H]2C(C)(C)[C@H]3CC[C@]2(C)C3)c(=O)c2cc(Br)ccc21"
  pKi: 8.30
- molecule: "CCCCCn1cc(C(=O)NC23CC4CC(CC(C4)C2)C3)c(=O)c2cc(-c3ccc4cc(OC)ccc4c3)ccc21"
  pKi: 7.28
- molecule: "CCCCCn1cc(C(=O)NC23CC4CC(CC(C4)C2)C3)c(=O)c2cc(-c3c(C)noc3C)ccc21"
  pKi: 6.90
- molecule: "CCCCCn1cc(C(=O)NC23CC4CC(CC(C4)C2)C3)c(=O)c2cc(-c3ccc(C#N)cc3)ccc21"
  pKi: 7.38
- molecule: "CCCCCn1cc(C(=O)NC23CC4CC(CC(C4)C2)C3)c(=O)c2cc(/C=C/C(C)(C)C)ccc21"
  pKi: 7.15
- molecule: "C=CCn1cc(C(=O)NC23CC4CC(CC(C4)C2)C3)c(=O)c2cc(-c3ccco3)ccc21"
  pKi: 7.23
- molecule: "CCCCCn1cc(C(=O)NC23CC4CC(CC(C4)C2)C3)c(=O)c2cc(C3CCCCC3)ccc21"
  pKi: 8.14
- molecule: "CCCCCn1cc(C(=O)NC23CC4CC(CC(C4)C2)C3)c(=O)c2cc([S+]([O-])c3ccccc3)ccc21 (configuration not stated)"
  pKi: 7.14
- molecule: "CCCCCn1cc(C(=O)NC23CC4CC(CC(C4)C2)C3)c(=O)c2cc(C3=CCCCC3)ccc21"
  pKi: 8.08

* * *

The reader will find reported Ki values listed item by item below.
target: Cannabinoid receptor 1 (Homo sapiens)

- molecule_smiles: "CCCCCn1cc(C(=O)NC23CC4CC(CC(C4)C2)C3)c(=O)c2cc(I)ccc21"
  system_name: "Cannabinoid receptor 1 (Homo sapiens)"
  Ki: "2.08 µM"
- molecule_smiles: "C#Cc1ccc2c(c1)c(=O)c(C(=O)NC13CC4CC(CC(C4)C1)C3)cn2CCCCC"
  system_name: "Cannabinoid receptor 1 (Homo sapiens)"
  Ki: "> 10 µM"
- molecule_smiles: "CCCCCn1cc(C(=O)NC23CC4CC(CC(C4)C2)C3)c(=O)c2cc(-n3ccnc3)ccc21"
  system_name: "Cannabinoid receptor 1 (Homo sapiens)"
  Ki: "> 10 µM"
- molecule_smiles: "C=CCCn1cc(C(=O)NC23CC4CC(CC(C4)C2)C3)c(=O)c2cc(-c3ccco3)ccc21"
  system_name: "Cannabinoid receptor 1 (Homo sapiens)"
  Ki: "> 10 µM"
- molecule_smiles: "CCCCCn1cc(C(=O)NC23CC4CC(CC(C4)C2)C3)c(=O)c2cc(-c3ccc(-c4ccccc4)cc3)ccc21"
  system_name: "Cannabinoid receptor 1 (Homo sapiens)"
  Ki: "> 10 µM"
- molecule_smiles: "CCCCCn1cc(C(=O)NC23CC4CC(CC(C4)C2)C3)c(=O)c2cc(-c3cccs3)ccc21"
  system_name: "Cannabinoid receptor 1 (Homo sapiens)"
  Ki: "> 10 µM"
- molecule_smiles: "CCCCCn1cc(C(=O)NC23CC4CC(CC(C4)C2)C3)c(=O)c2cc(-c3ccc(OC)nc3)ccc21"
  system_name: "Cannabinoid receptor 1 (Homo sapiens)"
  Ki: "> 10 µM"
- molecule_smiles: "C=CCn1cc(C(=O)NC23CC4CC(CC(C4)C2)C3)c(=O)c2cc(-c3ccco3)ccc21"
  system_name: "Cannabinoid receptor 1 (Homo sapiens)"
  Ki: "> 10 µM"
- molecule_smiles: "CCCCCn1cc(C(=O)NC23CC4CC(CC(C4)C2)C3)c(=O)c2cc(-c3c(C)noc3C)ccc21"
  system_name: "Cannabinoid receptor 1 (Homo sapiens)"
  Ki: "> 10 µM"
